Origin of the recorded values: patent US10287255B2

Molecular target: human recombinant HDAC6 (Homo sapiens)
Sequence (Q9UBN7 1-1215): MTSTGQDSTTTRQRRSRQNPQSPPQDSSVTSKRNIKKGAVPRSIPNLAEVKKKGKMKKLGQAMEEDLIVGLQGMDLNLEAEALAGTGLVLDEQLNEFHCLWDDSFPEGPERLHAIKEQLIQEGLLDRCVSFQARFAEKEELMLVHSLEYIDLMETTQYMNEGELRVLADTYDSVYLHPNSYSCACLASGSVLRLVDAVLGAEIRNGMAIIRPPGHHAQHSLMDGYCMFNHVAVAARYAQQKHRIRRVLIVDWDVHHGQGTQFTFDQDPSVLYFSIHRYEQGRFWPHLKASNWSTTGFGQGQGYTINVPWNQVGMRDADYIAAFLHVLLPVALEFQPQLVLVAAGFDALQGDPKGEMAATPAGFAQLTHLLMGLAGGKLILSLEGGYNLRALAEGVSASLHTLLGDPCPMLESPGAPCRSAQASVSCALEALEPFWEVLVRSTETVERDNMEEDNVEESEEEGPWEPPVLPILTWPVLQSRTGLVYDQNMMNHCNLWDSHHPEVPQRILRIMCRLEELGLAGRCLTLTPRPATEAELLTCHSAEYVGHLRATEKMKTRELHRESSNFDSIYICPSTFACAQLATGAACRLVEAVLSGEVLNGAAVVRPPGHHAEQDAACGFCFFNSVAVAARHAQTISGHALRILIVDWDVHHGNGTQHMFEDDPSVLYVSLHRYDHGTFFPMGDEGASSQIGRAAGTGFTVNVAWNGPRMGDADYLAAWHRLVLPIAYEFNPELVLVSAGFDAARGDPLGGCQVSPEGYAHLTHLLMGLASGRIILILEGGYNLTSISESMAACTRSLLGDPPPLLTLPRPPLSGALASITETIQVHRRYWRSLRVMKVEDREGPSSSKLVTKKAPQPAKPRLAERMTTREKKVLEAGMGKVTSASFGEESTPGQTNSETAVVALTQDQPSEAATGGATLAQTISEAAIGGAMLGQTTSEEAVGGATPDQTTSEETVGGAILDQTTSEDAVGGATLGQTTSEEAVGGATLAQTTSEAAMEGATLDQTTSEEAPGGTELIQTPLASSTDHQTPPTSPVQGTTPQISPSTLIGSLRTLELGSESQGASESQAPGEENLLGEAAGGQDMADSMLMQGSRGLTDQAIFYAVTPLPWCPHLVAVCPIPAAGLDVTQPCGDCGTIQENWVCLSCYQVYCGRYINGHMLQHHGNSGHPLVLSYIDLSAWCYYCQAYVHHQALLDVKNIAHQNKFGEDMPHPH
Experiment: HDAC6 enzyme activity inhibition assay (in vitro, fluorimetric)
Settings: human recombinant HDAC6, fluorimetric kit, same protocol as HDAC1
pIC50: −log10 of the molar value.
Measured Parameter: pIC50

Would you please look over these solved cases?
| Compound | Data Value |
| --- | --- |
| C[C@@H]1CN(Cc2ccc(C(=O)NO)cc2)C[C@H](C)N1C(=O)c1ccc(CN2CCCCC2)cc1 | 6.83 |
| COc1cccc(CNC(=O)N2C[C@@H](C)N(Cc3ccc(C(=O)NO)cc3)[C@@H](C)C2)c1 | 6.16 |
| C[C@@H]1CN(Cc2ccc(C(=O)NO)cc2)C[C@H](C)N1Cc1ccc(CN2CC[C@@H](F)C2)cc1 | 8.10 |

I = C[C@@H]1CN(Cc2ccc(C(=O)NO)cc2)C[C@H](C)N1C(=O)c1ccncc1
II = C[C@@H]1CN(Cc2ccc(C(=O)NO)cc2)C[C@H](C)N1C(=O)NCc1ccccc1
Request: From the items above, decide which of I and II has the lower pIC50 reading. Indicate your choice by writing its label.
Result: I
(I: 6.61, II: 7.80)
